// provenance: patent US20250161338A1

What PI intensity was measured for each of the following?
Test system: prototrophic yeast strain (CEN.PK113-7D)
Assay Method Text: Propidium iodide fluorescence-based CLS method in yeast (incl. high-throughput screening);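 also: untreated reference is eight DMSO and water control wells per plate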
Format: cell-based, Saccharomyces cerevisiae
Condition Info: concentration tested 100 μM; solvent DMSO or water; chronological age point Day 7 (72 h growth = Day 1); lower = more survival
Where a name gives a salt, the structure may show the parent alone.

// PI intensity lookup, key: CC(=O)c1ccc(O)c(C(=O)O)c1 63,538.6

// PI intensity lookup, key: C[C@H](O)[C@H](O)c1cnc2nc(N)[nH]c(=O)c2n1 75,974.5

// PI intensity lookup, key: O=C(O)[C@H]1O[C@@H](Oc2c(-c3ccc(O)cc3)oc3cc(O)cc(O)c3c2=O)[C@H](O)[C@@H](O)[C@@H]1O [Kaempferol 3-O-β-D-glucuronide] 62,874.6

// PI intensity lookup, key: Nc1ccccc1C(=O)C[C@H](N)C(=O)O 72,824.1

// PI intensity lookup, key: O[C@H]([C@H](O)[C@@H]1CO1)[C@H]1CO1 63,325.5

// PI intensity lookup, key: CO/N=C(\C(=O)N[C@@H]1C(=O)N2C(C(=O)O)=C(Cn3ccc(=N)n3CCO)CS[C@H]12)c1csc(N)n1.O=S(=O)(O)O [Cefoselis (sulfate), reference compound] 70,425.6

// PI intensity lookup, key: C[Se]CC[C@H](N)C(=O)O [Selenomethionine] 29,837.8

// PI intensity lookup, key: C/C(=C\C(=O)OCCCCCCCCC(=O)O)C[C@@H]1OC[C@H](C[C@@H]2O[C@H]2[C@@H](C)[C@H](C)O)[C@@H](O)[C@H]1O [Mupirocin, reference compound] 68,477.7

// PI intensity lookup, key: COc1cc(O)c(C(C)=O)c(OC)c1 70,352.1

// PI intensity lookup, key: CC1(C)C[C@@H]1C(=O)N/C(=C\CCCCSC[C@H](N)C(=O)O)C(=O)O [Cilastatin, reference compound] 55,728.9

// PI intensity lookup, key: Cc1cc2c(C(C)C)c(O)c(O)c(C=O)c2c(O)c1-c1c(C)cc2c(C(C)C)c(O)c(O)c(C=O)c2c1O 65,220.1

// PI intensity lookup, key: Cc1cc2nc3c(=O)[nH]c(=O)nc-3n(C[C@H](O)[C@H](O)[C@H](O)COP(=O)(O)OP(=O)(O)OC[C@H]3O[C@@H](n4cnc5c(N)ncnc54)[C@H](O)[C@@H]3O)c2cc1C [(disodium salt)] 59,508.7

// PI intensity lookup, key: CCCCC[C@H](O)CC(=O)CCc1ccc(O)c(OC)c1 [[6]-Gingerol] 61,395.3

// PI intensity lookup, key: CC(CCC(=O)NCC(=O)O)C1CCC2C3CCC4CC(O)CCC4(C)C3CC(O)C12C (stereo not shown) 68,981.6

// PI intensity lookup, key: Cc1nc(C)c(C)nc1C 62,003.6

// PI intensity lookup, key: NC(CO)C(=O)O (racemic) 33,155.7

---

Test system: prototrophic yeast strain (CEN.PK113-7D)
Assay Method Text: Propidium iodide fluorescence-based CLS method in yeast (incl. high-throughput screening);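 also: untreated reference is eight DMSO and water control wells per plate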
Format: cell-based, Saccharomyces cerevisiae
Condition Info: concentration tested 100 μM; solvent DMSO or water; chronological age point Day 7 (72 h growth = Day 1); lower = more survival
Where a name gives a salt, the structure may show the parent alone.
What PI intensity was measured for each of the following?

// PI intensity lookup, key: CN(C)c1ccc(O)c2c1C[C@H]1C[C@H]3[C@H](N(C)C)C(O)=C(C(N)=O)C(=O)[C@@]3(O)C(O)=C1C2=O [Minocycline (hydrochloride), reference compound] 71,078.2

// PI intensity lookup, key: COc1ccc(C=CC(=O)O)cc1 89,890.5

// PI intensity lookup, key: CC[C@H]1CN2CCc3cc(OC)c(OC)cc3[C@@H]2C[C@@H]1C[C@H]1NCCc2cc(OC)c(OC)cc21 [Emetine (dihydrochloride hydrate), reference compound] 75,341.5

// PI intensity lookup, key: O=C(O)Cc1ccccc1Nc1c(Cl)cccc1Cl [Diclofenac (Sodium), reference compound] 79,704.3

// PI intensity lookup, key: C=C1C(=O)O[C@@H]2C[C@@]3(C)CCCC(=C)[C@@H]3C[C@H]12 94,566.8

// PI intensity lookup, key: CC(=O)OCc1ccccc1 [Benzyl acetate] 74,321.9

// PI intensity lookup, key: COCc1c(C(C)C)nc(C(C)C)c(/C=C/[C@@H](O)C[C@@H](O)CC(=O)[O-])c1-c1ccc(F)cc1.[Na+] [Cerivastatin (sodium), reference compound] 64,250.5

// PI intensity lookup, key: O=C(O)C=Cc1ccccc1 60,256.3
